assay_system: Glucagon Receptor (Homo sapiens)
assay_procedure: Glucagon receptor binding assay (scintillation proximity competition binding)
particulars: read-out: IC50 (nM) receptor binding; Table 9
Ends that are not written are not given here.
measurement_type: IC50

• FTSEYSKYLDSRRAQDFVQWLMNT-NH2 [[Glu^9]Glucagon(aa6-29)-NH2] = 36.4 nM

----------
assay_system: Glucagon Receptor (Homo sapiens, UniProt P47871)
Sequence (P47871 26-477): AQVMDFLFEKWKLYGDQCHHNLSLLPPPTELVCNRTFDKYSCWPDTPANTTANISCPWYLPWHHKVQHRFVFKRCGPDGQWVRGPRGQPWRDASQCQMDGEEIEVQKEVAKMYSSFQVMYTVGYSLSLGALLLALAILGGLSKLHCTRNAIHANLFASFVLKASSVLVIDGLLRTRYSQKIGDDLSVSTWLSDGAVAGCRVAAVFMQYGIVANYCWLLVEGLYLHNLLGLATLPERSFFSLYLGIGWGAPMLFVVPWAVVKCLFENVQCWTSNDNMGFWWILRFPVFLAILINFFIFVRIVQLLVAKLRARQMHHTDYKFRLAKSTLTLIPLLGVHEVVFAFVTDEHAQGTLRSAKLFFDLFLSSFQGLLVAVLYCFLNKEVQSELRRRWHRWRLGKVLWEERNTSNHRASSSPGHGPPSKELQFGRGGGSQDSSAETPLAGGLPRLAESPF
assay_procedure: Glucagon receptor binding assay (scintillation proximity competition binding)
particulars: read-out: IC50 (nM) (Receptor binding); Table 12; listed as [Phe^6, E^9, C^24(20kDaPEG)]Glucagon(aa6-29)-NH2
Ends that are not written are not given here.
measurement_type: IC50

- [E^9, C^24 (20kDaPEG)]Glucagon(aa6-29)-NH2 (FTSEYSKYLDSRRAQDFVC(PEG 20 kDa)WLMNT-NH2): > 10000 nM

----------
assay_system: GLP-1 Receptor (Homo sapiens, UniProt P43220)
Sequence (P43220 24-463): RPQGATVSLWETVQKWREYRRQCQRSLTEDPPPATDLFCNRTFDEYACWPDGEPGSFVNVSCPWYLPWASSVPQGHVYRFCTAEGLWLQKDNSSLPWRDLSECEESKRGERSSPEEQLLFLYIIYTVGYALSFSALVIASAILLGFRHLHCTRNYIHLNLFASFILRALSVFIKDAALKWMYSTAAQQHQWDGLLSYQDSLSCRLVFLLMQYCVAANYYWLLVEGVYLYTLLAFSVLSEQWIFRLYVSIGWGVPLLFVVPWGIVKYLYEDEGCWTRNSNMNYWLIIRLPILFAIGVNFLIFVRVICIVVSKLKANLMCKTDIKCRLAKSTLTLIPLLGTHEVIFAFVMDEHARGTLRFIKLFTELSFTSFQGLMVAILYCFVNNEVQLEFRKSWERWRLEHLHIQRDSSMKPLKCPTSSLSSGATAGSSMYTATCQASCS
assay_procedure: Functional assay, cAMP induction (luciferase reporter, HEK293) at GLP-1 receptor
Format: cell-based
particulars: read-out: GLP-1 agonism EC50; Table 21
Bridge positions count the residues as written; N and C are the ends. Square brackets hold non-standard residues; d marks the D form. Ends that are not written are not given here. PhLac = O=C(O)[C@@H](O)Cc1ccccc1
measurement_type: EC50

- [PLA6, E16K20(Lactam), C24(20 kDa), D28]G(6-29) ([PhLac]TSDYSKYLDERRAKDFVC(PEG 20 kDa)WLMDT-NH2; lactam 11-15): 0.45 to 1.84 µM

----------
assay_system: Glucagon Receptor (Homo sapiens, UniProt P47871)
assay_procedure: cAMP inhibition: antagonism of glucagon-induced cAMP at glucagon receptor
Assay type: cell-based
Parameters: expressed in transfected cells; host or cells: HEK293
particulars: read-out: IC50 (nM) (cAMP, inhibit 0.2 mM Glucagon); Table 12; inhibit 0.2 mM Glucagon
Square brackets hold non-standard residues; d marks the D form. Ends that are not written are not given here.
measurement_type: IC50

* [d-Cys^5(20kDaPEG), E^9]Glucagon(aa5-29)-NH2 ([dC](PEG 20 kDa)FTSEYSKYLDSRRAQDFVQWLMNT-NH2) | 14800 nM

----------
assay_system: Glucagon Receptor (Homo sapiens, UniProt P47871)
assay_procedure: cAMP inhibition: antagonism of glucagon-induced cAMP at glucagon receptor
Format: cell-based
Design: expressed in transfected cells; host or cells: HEK293
particulars: read-out: Glucagon antagonism IC50(nM) (inhibit 0.2-0.8 nM glucagon)
Bridge positions count the residues as written; N and C are the ends. Square brackets hold non-standard residues; d marks the D form. Ends that are not written are not given here. PhLac = O=C(O)[C@@H](O)Cc1ccccc1
measurement_type: IC50

- [PLA6, E16K20(Lactam), C24(20 kDa), D28]G(6-29) ([PhLac]TSDYSKYLDERRAKDFVC(PEG 20 kDa)WLMDT-NH2; lactam 11-15): 374 to 1460 nM

----------
Listed here: items and their measured IC50.
assay_system: Glucagon Receptor (Homo sapiens, UniProt P47871)
assay_procedure: Glucagon receptor binding assay (scintillation proximity competition binding)
particulars: read-out: IC50 (nM) (Receptor binding); Table 12
Square brackets hold non-standard residues; d marks the D form. Side chains are listed from the residue outwards. Ends that are not written are not given here.
measurement_type: IC50

- [C^8(20kDaPEG), E^9]Glucagon(aa6-29)-NH2 (FTC(PEG 20 kDa)EYSKYLDSRRAQDFVQWLMNT-NH2): > 1000 nM
- [d-Cys^5(20kDaPEG), E^9]Glucagon(aa5-29)-NH2 ([dC](PEG 20 kDa)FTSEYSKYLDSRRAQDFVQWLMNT-NH2): > 10000 nM
- [E^9, C^11(20kDaPEG)]Glucagon(aa6-29)-NH2 (FTSEYC(PEG 20 kDa)KYLDSRRAQDFVQWLMNT-NH2): > 1000 nM
- [K^5(CH2CH2S-20kDaPEG), E^9]Glucagon(aa5-29)-NH2 (K([CH2CH2S-PEG 20 kDa])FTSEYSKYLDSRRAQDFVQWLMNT-NH2): > 10000 nM
- [E^9, C^24 (20kDaPEG)]Glucagon(aa6-29)-NH2 (FTSEYSKYLDSRRAQDFVC(PEG 20 kDa)WLMNT-NH2): > 1000 nM
